Assay: Hepatic stability (rat cryopreserved hepatocytes)
Format: in vitro ADME
Conditions: pH 7.4, 1 μM test compound, 1×10^6 cells/mL, 37° C., read-out: Averages. Hep Half Life Rat
Counter-ions that a name gives are not always drawn.
reported_metric: half-life at 1 μM (min)

Past entries and their recorded results:
QUERY: Need half-life at 1 μM, item CCn1c(CNC(=O)c2nc(Br)cnc2N)[n+](C)c2ccc(C(F)(F)F)cc21.[I-] [Example 13]
RESULT: 14

QUERY: Another compound to check: CCn1c(CNC(=O)c2nc(Br)cnc2N)[n+](Cc2ccccc2)c2ccc(C(F)(F)F)cc21.O=C[O-] [Example 19]
RESULT: 17

QUERY: Record: CCn1c(CNC(=O)c2nc(Br)cnc2N)[n+](CC)c2ccc(OCCN)cc21.Cl.[Cl-] [Example 25]
RESULT: 59

QUERY: Queued: CCn1c(CNC(=O)c2nc(Br)cnc2N)[n+](CC)c2ccc(-c3cnn(C4CCN(C(=O)OC(C)(C)C)CC4)c3)cc21.[I-] [Example 20]
RESULT: 20

QUERY: Proceed to CCn1c(CNC(=O)c2nc(Br)cnc2N)[n+](CC)c2ccc(C(=O)OC)cc21.[I-] [Example 15]
RESULT: 14

1: CCn1c(CNC(=O)c2nc(C#N)cnc2N)[n+](CC)c2ccc(OC)cc21 [Example 26, formate]
2: CCn1c(CNC(=O)c2nc(Br)cnc2N)[n+](CCO)c2ccc(OC)cc21.O=C[O-] [Example 3]
QUERY: Could you determine which record has the numerically smaller half-life at 1 μM? Candidates: 1 and 2 Label of pick, please.
RESULT: 2
(2: 13 min, 1: 23 min)

a: CCn1c(CNC(=O)c2nc(Br)cnc2N)[n+](CC)c2ccc(C(=O)N[C@@H]3CCOC3=O)cc21 [Example 17, formate]
b: CCn1c(CNC(=O)c2nc(Cl)cnc2N)[n+](C)c2ccc(OC)cc21.[I-] [Example 5]
QUERY: Pick one: a or b . Which has the bigger half-life at 1 μM number? Reply with the label of the item you choose.
RESULT: a
(a: 32 min, b: 5 min)

----------
Assay: Microsomal stability (human microsomes)
Type: in vitro ADME
Details: pH 7.4, 1 μM test compound, 0.5 mg/mL protein, 1 mM NADPH, 37° C., read-out: Averages. Mic Half Life Human
Where a name gives a salt, the structure may show the parent alone.
reported_metric: half-life at 1 μM (h)

# example entries with known answers
QUERY: // lookup half-life at 1 μM for `CCn1c(CNC(=O)c2nc(Br)cnc2N)[n+](CCO)c2ccc(OC)cc21.O=C[O-]`
RESULT: 1.48

QUERY: // repeat for CCn1c(CNC(=O)c2nc(Br)cnc2N)[n+](CC)c2ccc(C(=O)N[C@@H]3CCOC3=O)cc21 [Example 17, formate] and report
RESULT: 2.25

P: CCn1c(CNC(=O)c2nc(Br)cnc2N)[n+](C)c2ccc(F)cc21.O=C[O-]
Q: CCn1c(CNC(=O)c2nc(Br)cnc2N)[n+](C)c2ccc(OC)cc21.[I-]
QUERY: Could you please tell me which of these two has the higher half-life at 1 μM: P or Q ? Write down the label of the entry you select.
RESULT: P
(P: 1.85 h, Q: 0.2 h)
